All values here come from ChEMBL document CHEMBL5308541.

# System: Plasmodium falciparum
# Assay method text: Confirmatory screen in NF54 pLDH assay, in single point, at 2uM, 72h
# Assay type: functional, Erythrocyte
# Stated conditions: timepoint 72 hour
Among all 4,800 compounds or so, about 410 (8.5%) showed an effect of 50% or more. Many of the other results were omitted from the sample, so strong results are more common in it than they were.
Hi! Just check whether % Inhibition is below 90%. Below gives MET, equal or above gives NOT MET.

- Molecule: "CC(C)c1ccc(-c2noc(CCN3CCN(CCCN(C)C)CC3)n2)cc1"
  Class: "MET"

Below 90% on % Inhibition? Entry CCOc1cc(C(=O)NC2CCN(CC3CCCC3)CC2)cc(-c2ccccc2)c1OC NOT MET

Find out if reported % Inhibition for Brc1ccc2[nH]c3c(c2c1)CCCC3NC1CCc2[nH]cnc2C1 (stereo not given) is less than 90% NOT MET

API: query returns whether the molecule falls strictly under 90% in % Inhibition. Query: CN(CCCn1ccnc1)c1ccnc2cc(Br)ccc12 NOT MET

Bench note: check whether c1ccc2c(CNCCC3CCN(c4ccncc4)CC3)csc2c1 shows % Inhibition below 90% NOT MET

I wonder whether CN(C[C@H](O)COc1cccc(CNCCCOc2cccnc2)c1)C1CCCCC1 has % Inhibition below 90%. Can you tell? MET

Lab note: % Inhibition threshold 90%. Does this molecule come in strictly under it? Cc1cc(F)ccc1N1CCC(NCCCNc2cccnc2)CC1 MET

% Inhibition strictly < 90% for this molecule? CCNc1nc(C)cc(Nc2ccc(NC(=O)Nc3ccc(F)cc3F)cc2)n1 NOT MET

Does c1cc(CNC2CCN(C[C@H]3CCOC3)CC2)c2cc[nH]c2c1 have % Inhibition strictly under 90%? MET

Dear reviewer, please state whether Nc1ccnc2ccc(-c3ccc(C(=O)NCC4CCOCC4)cc3)cc12 has % Inhibition strictly beneath 90%. NOT MET

Does the reported % Inhibition of the following molecule sit strictly below 90%? CCN1CCN(c2ccccc2CNCCC2CCN(C)CC2)CC1 MET

Input c1ccc2c(Nc3ccc4[nH]cnc4c3)c3ccccc3nc2c1 ; condition: % Inhibition strictly below 90%. Does it hold? NOT MET

Determine whether this molecule shows % Inhibition lower than 90% (ties excluded): CCN1CCC(N2CCC(C(=O)NCCc3ccc(OC(F)(F)F)cc3)CC2)CC1 MET

Lab log: compare recorded % Inhibition with 90%; is it strictly lower for Brc1cccc(NCCNC2CCN(Cc3cccnc3)CC2)c1 ? MET

Please indicate whether the reported % Inhibition of COc1ccc2nc(C)cc(NCc3cccc(NC(=O)c4ccco4)c3)c2c1 is strictly below 90%. NOT MET

Lab log: compare recorded % Inhibition with 90%; is it strictly lower for Nc1ccnc(-c2cccc3[nH]ccc23)c1 ? MET

Hello, is % Inhibition of the following molecule strictly smaller than 90%? Cc1cc(O)c(Cl)cc1-c1cccc2c(N)ccnc12 NOT MET

Item CCc1cc(NCCc2nc3cc(F)ccc3[nH]2)nc(-c2ccccn2)n1 : % Inhibition beneath 90%, strictly? MET

Item CCOc1ccc2nc(N3CCC(N4CCC([C@H](O)c5cccnc5)CC4)CC3)nc(C)c2c1 : % Inhibition beneath 90%, strictly? MET

====

# Test system: Plasmodium falciparum
# Assay method text: Confirmatory screen in NF54 pLDH assay, in single point, at 2uM, 72h
# Format: functional, Erythrocyte
# Stated conditions: timepoint 72 hour
About 410 (8.5%) of roughly 4,800 compounds showed an effect of 50% or more. For the sample, strong results were picked, then their nearest neighbours and some compounds at random.
Quantity: % Inhibition (%)
Numbers only, in %.

Worked examples follow.
- Molecule: "COCCNc1nc(N[C@@H](C)c2ccccc2)c2ccccc2n1"
  System under test: "Plasmodium falciparum"
  Unit label: "%"
  % Inhibition: 92
- Molecule: "CN1CCC(Oc2ccc(NC(=O)c3cn4ccnc4s3)cn2)CC1"
  System under test: "Plasmodium falciparum"
  Unit label: "%"
  % Inhibition: 92
- Molecule: "OC1(c2ccc(Cl)cc2)CCN(C[C@@H]2CCCN3CCCC[C@H]23)CC1"
  System under test: "Plasmodium falciparum"
  Unit label: "%"
  % Inhibition: 88

API: the following record is the query input.
Would you mind telling me what % Inhibition value was observed for c1ccc(CCC23CN(Cc4ccccn4)CC2CN(Cc2ccns2)C3)cc1 (centres undefined) ? 88
